A collection of compounds and their measured mortality at 1000 µg/mL
System: Mythimna separata
Assay: Insecticidal activity against Mythimna separata (Oriental armyworm) in wheat leaves assessed as mortality rate at 1 mg/mL at 25 degC measured after 10 days by leaf-dipping method relative to control
Type: functional
Settings: 240 h
Write down the numeric answer in % and omit the unit.

Sample records with mortality at 1000 µg/mL:
{"columns": ["Smiles Text", "mortality at 1000 µg/mL (%)"],
 "data": [
  ["C[C@@]12CCCC(COC(=O)Cc3cccc4ccccc34)=C1C(=O)O[C@H]2c1ccoc1", 20.7],
  ["CC1=C2C(=O)O[C@@H](c3ccoc3)[C@]2(C)CC[C@H]1OC(=O)COc1cccc2cccnc12", 13.8],
  ["CC1=C2C(=O)O[C@@H](c3ccoc3)[C@]2(C)CC[C@H]1OC(=O)c1ccccc1", 41.4],
  ["CC1=C2C(=O)O[C@@H](c3ccoc3)[C@]2(C)CC[C@H]1OC(=O)c1cccc([N+](=O)[O-])c1", 10.3]
]}

Form field - read-out: mortality at 1000 µg/mL; system: Mythimna separata; submitted item: `C[C@@]12CCCC(COC(=O)c3ccc(F)cc3)=C1C(=O)O[C@H]2c1ccoc1`
10.3

Which measured mortality at 1000 µg/mL belongs to `CC1=C2C(=O)O[C@@H](c3ccoc3)[C@]2(C)CC[C@H]1OC(=O)c1ccc(Cl)cc1` , tested on Mythimna separata?
20.7

# value lookup — system Mythimna separata, readout mortality at 1000 µg/mL, item `CC1=C2C(=O)O[C@@H](c3ccoc3)[C@]2(C)CC[C@H]1OC(=O)Cc1cccc2ccccc12`
10.3

Could you share what mortality at 1000 µg/mL was measured for `C[C@@]12CCCC(COC(=O)c3cccc(F)c3)=C1C(=O)O[C@H]2c1ccoc1` , tested on Mythimna separata?
24.1

Test system Mythimna separata; read-out mortality at 1000 µg/mL; what value for `CC1=C2C(=O)O[C@@H](c3ccoc3)[C@]2(C)CC[C@H]1OC(=O)c1ccc([N+](=O)[O-])cc1` ?
27.6

###

Tested on: Mythimna separata
Experiment: Insecticidal activity against Mythimna separata (Oriental armyworm) in wheat leaves assessed as mortality rate at 1 mg/mL at 25 degC measured after 10 days by leaf-dipping method relative to control
Assay type: functional
Conditions: 240 h
Reported Metric: mortality at 1000 µg/mL (%)
Write the value in % as a bare number.

Some entries whose results are on file:
{"columns": ["Smiles Text", "mortality at 1000 µg/mL, %"],
 "data": [
  ["C[C@@]12CCCC(COC(=O)c3ccc(Br)cc3)=C1C(=O)O[C@H]2c1ccoc1", 24.1],
  ["CC1=C2C(=O)O[C@@H](c3ccoc3)[C@]2(C)CC[C@H]1OC(=O)Cc1ccccc1", 31],
  ["C[C@@]12CCCC(COC(=O)c3cccc(Br)c3)=C1C(=O)O[C@H]2c1ccoc1", 13.8],
  ["C[C@@]12CCCC(COC(=O)c3ccncc3)=C1C(=O)O[C@H]2c1ccoc1", 24.1],
  ["CC1=C2C(=O)O[C@@H](c3ccoc3)[C@]2(C)CC[C@H]1OC(=O)c1ccc(Br)cc1", 24.1]
]}

So what's the measured mortality at 1000 µg/mL for this one? `CC1=C2C(=O)O[C@@H](c3ccoc3)[C@]2(C)CC[C@H]1OC(=O)c1ccncc1`
24.1
